Entries and their pKd
Biological target: T1, PUF4 RNA-binding domain (Saccharomyces cerevisiae, UniProt P25339 537-888)
T1 sequence: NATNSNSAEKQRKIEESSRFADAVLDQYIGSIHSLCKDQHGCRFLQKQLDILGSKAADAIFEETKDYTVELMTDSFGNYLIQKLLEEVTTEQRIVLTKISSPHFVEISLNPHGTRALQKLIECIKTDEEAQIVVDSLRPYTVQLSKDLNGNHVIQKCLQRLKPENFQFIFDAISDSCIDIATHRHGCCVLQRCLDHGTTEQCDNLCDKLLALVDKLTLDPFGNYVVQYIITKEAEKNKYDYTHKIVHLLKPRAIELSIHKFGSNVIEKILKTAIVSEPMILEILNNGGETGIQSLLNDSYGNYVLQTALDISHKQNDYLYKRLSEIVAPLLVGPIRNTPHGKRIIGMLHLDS
Experiment: Mg; RNA-MaP; 20 mM Na-HEPES pH 7.4, 30 mM KOAc, 0.75 mM MgCl2, 0.1% Tween-20, 5% glycerol, 0.1 mg/mL BSA, 2 mM DTT; 25 C; 0.0125-409.6 nM protein
Details: tags: N-His6-TEV cleaved; C-SNAP kept, Cy3B-labelled; label: tethered on chip by stalled RNA polymerase
pKd: −log10 of the molar value.
result.type: pKd

INSERT INTO measurements (binder, result_type, recorded_number) VALUES
  ('Ib_S2_P4E.1_K4.1_C4.1_H4.1_[T1G]_A4.1_F4.1_[A9T]_T4.1 (ssRNA) RNA: UUUGAUUAAUAUGAUAUCGUUCUUUCUGGUAUAUUUUUCUUUCUCGAUAUCAUAUUAAUCUUU', 'pKd', 5.86),
  ('UCUCUUUGUAUUCCUAUCUCUU (ssRNA) [Ib_S1_P5E.1_K5.1_C5.1_H5.1_A5.1_[A7C]_F5.1_[T8C]_T5.1]', 'pKd', 7.76),
  ('UCUCUUUCUGUAUAUUACUUCUCUU (ssRNA) [Id_ii_S1_P4E.2_K4.1_C4.2_[C-2T]_[T-1C]_H4.1_A4.1_F4.1_T4.2_[G10C]]', 'pKd', 9.17),
  ('Ic_S2_P5E.1_K5.1_C5.1_H5.1_A5.1_[T6C]_F5.1_[T9G]_[A10C]_T5.1 (ssRNA) RNA: UUUGAUUAAUAUGAUAUCGUUCUUUCUUGUAUCAUGCUUCUUUCUCGAUAUCAUAUUAAUCUUU', 'pKd', 7.92),
  ('UCUCUUUGUAUGUCCUCUCUU (ssRNA) [Ic_S1_P4E.1_K4.1_C4.1_H4.1_A4.1_[A6G]_F4.1_[T8C]_[A9C]_T4.1]', 'pKd', 6.25),
  ('Id_iii_S2_P5E.7_K5.3_C5.3_[T-3A]_H5.3_A5.1_F5.1_T5.2 (ssRNA) RNA: UUUGAUUAAUAUGAUAUCGUUCUUUCUACUACACUUAUUAUAUUCUUUCUCGAUAUCAUAUUAAUCUUU', 'pKd', 6.15);
